Reported IC50 at 48 h by item:
# assay: Cytotoxicity against neonatal Sprague-Dawley rat cardiomyocyte assessed as reduction in ANP expression incubated for 48 hrs by ELISA assay
# Type: toxicity, cell-based, Cardiac muscle cell
# measurement conditions: neonatal rat cardiomyocytes
readout type: IC50 at 48 h (µM)

{"columns": ["compound", "readout type", "endpoint value"],
 "data": [
  ["C=C[C@@]12C=C(C)C(=O)C=C1[C@]1(C)CC[C@@H](O)C(C)(C)[C@H]1CC2", "IC50 at 48 h", 41.8],
  ["COC(=O)c1cc2c(cc1OC)[C@]1(C)CCC(=O)C(C)(C)C1=C(O)C2=O", "IC50 at 48 h", 52.3]
]}
